B1: library; a variant is named by its letters at N, in order (parent)
chain: ACATTTGTTGATACAACCATAAAATGATAATTACACCCATAAATTGATAATTATCACACCCANNNNNNNNNNNNNNCTCTGATCATAGTCAGACCAACATTGCTACGACCCGTATTCGCACCGACAC

Variants of: B1
assay_notes: relative integration efficiency (T-LR orientation) vs wild-type transposon end (log2 (normalized fold change)); transposon end mutated: right end (5 bp flank + 75 bp right end); higher = more efficient transposition
run_parameters: with VchCAST RNA-guided transposition machinery (E. coli BL21(DE3) host, lacZ target)
Each entry gets No if its relative integration efficiency (log2) stays under 0.5, and Yes if its relative integration efficiency (log2) is 0.5 or above.

variant_description | label_value
ATTTAACTATAACG A27C | Yes
ATTTAACTATAACG C18A | Yes
ATTTAACTATAACG C57G | Yes
TAGATTGATATTGC | Yes
TGAATTGATATTGC | Yes
TAAATTGATATTGC A21G | No
ATTTAACTATAACG A23C | Yes
TAAATTGATATTGC A29T | No
TAAATTGATATTGC A3C | No
TAAATTGATATTGC C36A | No
TAAATTGATATTGG | No
TAAATTGATATACC | No
ATTTAACTATAACG A13C | Yes
ATTTAACTATAACG T9C | Yes
ATTTAACTATAACG C18T | Yes
TAAATTGATATTGC C38G | No
TAAATTGATATTGC T9G | No
TAAATTGAAATTGC | Yes
ATTTAACTATAACG T9G | Yes
ATTTAACTATAACG C61G | Yes
TAAATTGATATTGC C61T | Yes
ATTTAACTATAACG T28C | Yes
TAAATTGATATTGC A23G | No
TAAATTGATATTGC T28A | No
ATTTAACTATAACG C14G | Yes
TAAATTGATATTGC A50C | No
TAAATTGATATTGC T52C | No
ATTTAACTATAACG A24G | Yes
TAAATTGATATTGC A24T | No
TAAATTGATATTGC T5A | No
TAAATTGATATTGC G10C | No
TAAATTGATATTGC T4G | No
ATTTAACTATAACG G26A | Yes
TAAATTGATATTGC A35C | No
TACATTGATATTGC | Yes
TAAATTGATATTGC T8G | No
TAAATTGATATTGC A62T | Yes
ATTTAACTATAACG T51C | Yes
TAAATTGCGCGTGC | Yes
ATTTAACTATAACG A47G | Yes
ATTTAACTATAACG A39C | No
ATTTAACTATAACG C38A | Yes
TAAATTGTAATTGC | Yes
TAAATTGATATTGC C34A | No
ATTTAACTATAACG A22T | Yes
ATTTAACTATAACG G10T | No
ATTTAACTATAACG A27G | Yes
TAAATTGATATTGC T6A | No
TAAATTGATATTGC A30C | No
TAAATACTAATTGC | Yes
TAAATTGATATTGC C17T | No
TAAATTGATATTGC C55T | No
ATTTAACTATAACG A50C | Yes
TAAATTGATATTGC T54A | No
TAAATTTCGCTTGC | Yes
ATTTAACTATAACG A19T | Yes
TAAATTGATATTGC A22G | No
ATTTAACTATAACG C34G | Yes
ATTTAACTATAACG A30C | Yes
TAAATTGATATTGC A15C | No
TAAATTGATATTGC T32G | Yes
TAAATTGATATTGC A62C | Yes
TAAATTGATATTGC C14G | No
ATTTAACTATAACG A56C | Yes
ATTTAACTATAACG A39T | Yes
TAAATTGATATTGA C77A | No
TAAATTGAGCGGGC | Yes
TAAATTGATATTGC T52G | No
TAAATTGATATTGC A58T | Yes
TAAATTGATATTGC T80A | No
ATTTAACTATAACG T31A | Yes
ATTTAACTATAACG A30T | Yes
ATTTAACTATAACG T52G | Yes
TAAATAGATATTGC | Yes
TAAATTGATATTGC A41T | No
TAAATTGATATTGC A43T | No
TAAATTGATATTGC A43C | No
TAAATTGATATTGC C38A | No
GAAATTGATATTGC | Yes
TAAATTGATATTGC T20A | No
ATTTAACTATAACG A41T | Yes
ATTTAACTATAACG T12A | Yes
TAAATTGATATTGC T51A | No
TAAATTGATATTGC C79A | No
ATTTAACTATAACG T8A | Yes
TAAATTGATATTGC C14A | No
TAAATTGATATTGG C77G | No
TAAATTGATATTGC A23T | Yes
TAAATCGATATTGC | No
TAAATTGATATTGC T80C | No
TAAATTGATATTTA | No
